Record form. Attribute: Activity. Fill in for each entry.
Organism: Rattus norvegicus
experiment notes: Effect on scopolamine-induced spartial working memory loss in Wistar rat on Y maze assessed as alteration behavior
Type: functional
Give bare numbers, in %.

Here is how some compounds turned out for Activity.
* CN1CCC=C(C2CN(C(=S)Nc3ccccc3F)CCO2)C1 (centres undefined) | 58
* COc1ccc(NC(=S)N2CCOC(C3=CCCN(C)C3)C2)cc1 (centres undefined) | 60

Items follow; give Activity for each.
1. CN1CCC=C(C2CN(C(=S)Nc3ccc(Cl)cc3)CCO2)C1 (centres undefined)
2. CN1CCC=C(C2CN(C(=S)Nc3ccc(F)cc3)CCO2)C1 (centres undefined)

64
61
